method_summary: Pharmacokinetic evaluation of cynomolgus monkey (IV and oral)
Assay type: in vivo, cynomolgus monkeys
settings: male, 1 mg/kg IV, plasma
Experimental: Test Embodiment 3: Pharmacokinetic Evaluation of Cynomolgus Monkey The drug concentrations in the plasma of cynomolgus monkeys were tested at different times after intravenous injection and oral administration of the compounds using cynomolgus monkeys as test animals. The pharmacokinetic behavior of the compounds of the present disclosure in cynomolgus monkeys was studied and their pharmacokinetic characteristics were evaluated. […]
Kindly state Tmax for each of the entries shown.
Numbers only, in min.

>>> measured_number("O=C(O)c1ccc2nc(CN3CCC(c4ccccc4OCc4ccc(Cl)cc4F)CC3)n(C[C@@H]3CCO3)c2c1")
4.98

Q) If you can, please state the reported Tmax value of N#Cc1ccc(COc2cccc(C3CCN(Cc4nc5ccc(C(=O)O)cc5n4C[C@@H]4CCO4)CC3)n2)c(F)c1 [PF-06882961, reference compound] .
A) 4.98

====

system: human GLP-1R receptor (Homo sapiens)
Sequence (P43220 24-463): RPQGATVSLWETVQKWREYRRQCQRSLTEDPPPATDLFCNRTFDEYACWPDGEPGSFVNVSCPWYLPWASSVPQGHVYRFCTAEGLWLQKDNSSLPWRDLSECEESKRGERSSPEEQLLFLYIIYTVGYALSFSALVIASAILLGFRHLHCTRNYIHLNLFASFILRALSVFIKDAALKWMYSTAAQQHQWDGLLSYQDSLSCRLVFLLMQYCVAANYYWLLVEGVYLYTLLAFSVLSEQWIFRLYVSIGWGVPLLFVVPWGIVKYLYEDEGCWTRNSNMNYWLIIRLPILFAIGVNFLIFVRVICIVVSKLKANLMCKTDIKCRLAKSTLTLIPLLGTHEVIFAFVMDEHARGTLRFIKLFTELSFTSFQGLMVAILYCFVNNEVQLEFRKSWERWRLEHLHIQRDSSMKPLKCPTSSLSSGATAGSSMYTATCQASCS
method_summary: GLP-1R cAMP assay (HTRF, HEK293 cells expressing GLP-1R)
settings: agonistic activity, GLP-1R HEK293 cells
measurement_type: pEC50
Give bare numbers, as −log10 of the molar value.

>>> measured_number("O=C(O)c1ccc2nc(CN3CCC(c4ccccc4OCc4ccc(Cl)cn4)CC3)n(C[C@@H]3CCO3)c2c1 [Compound 9]")
7.46
>>> measured_number("Cc1ccc(COc2ccccc2C2CCN(Cc3nc4ccc(C(=O)O)cc4n3C[C@@H]3CCO3)CC2)c(F)c1 [Compound 12]")
9.00
>>> measured_number("O=C(O)c1ccc2nc(CN3CCC(c4cccc(F)c4OCc4ccc(Cl)cc4F)CC3)n(C[C@@H]3CCO3)c2c1 [Compound 4]")
9.15
>>> measured_number("O=C(O)c1ccc2nc(CN3CCC(c4cccc(OCc5ccc(Cl)cc5F)n4)CC3)n(C[C@@H]3CCO3)c2c1 [Ref-01, reference compound]")
9.00
>>> measured_number("O=C(O)c1ccc2nc(CN3CCC(c4ccccc4OCc4ccc(F)cc4F)CC3)n(C[C@@H]3CCO3)c2c1 [Compound 8]")
8.49

Can you give me pEC50 for all of these, one by one?
1. COc1cccc(C2CCN(Cc3nc4ccc(C(=O)O)cc4n3C[C@@H]3CCO3)CC2)c1OCc1ccc(Cl)cc1F [Compound 5]
2. N#Cc1ccc(COc2c(F)cccc2C2CCN(Cc3nc4ccc(C(=O)O)cc4n3C[C@@H]3CCO3)CC2)c(F)c1 [Compound 2]
3. O=C(O)c1ccc2nc(CN3CCC(c4ccccc4OCc4ccc(Cl)cc4F)CC3)n(C[C@@H]3CCO3)c2n1 [Compound 22]
4. O=C(O)c1ccc2nc(CN3CCC(c4ccccc4SCc4ccc(Cl)cc4F)CC3)n(C[C@@H]3CCO3)c2c1 [Compound 17]
5. [2H]C([2H])(c1nc2ccc(C(=O)O)cc2n1C[C@@H]1CCO1)N1CCC(c2ccccc2OCc2ccc(Cl)cc2F)CC1 [Compound 27]
6. O=C(O)c1ccc2nc(CN3CCC(c4c(F)cccc4OCc4ccc(Cl)cc4F)CC3)n(C[C@@H]3CCO3)c2c1 [Compound 6]

A)
1. 7.82
2. 9.10
3. 8.68
4. 7.28
5. 8.64
6. 8.09

Report pEC50 for each item below.
1. O=C(O)c1ccc2nc(CN3CCC(c4cccc(F)c4OCc4ccccc4F)CC3)n(C[C@@H]3CCO3)c2c1 [Compound 7]
2. O=C(O)c1ccc2nc(Cc3ccc(-c4ccccc4OCc4ccc(Cl)cc4F)cc3)n(C[C@@H]3CCO3)c2c1 [Compound 20]

A)
1. 8.30
2. 7.61

The following molecules each have a reported value; give each one's pEC50.
1. O=C(O)c1ccc2nc(CN3CCN(c4ccccc4OCc4ccc(Cl)cc4F)CC3)n(C[C@@H]3CCO3)c2c1 [Compound 18]
2. [2H]C([2H])(Oc1ccccc1C1CCN(Cc2nc3ccc(C(=O)O)cc3n2C[C@@H]2CCO2)CC1)c1ccc(Cl)cc1F [Compound 26]

A)
1. 7.97
2. 8.74
